B1: KRT18 (parent)
chain: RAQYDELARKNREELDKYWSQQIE

variants of: B1; assay: protein stability index of a GFP-peptide fusion (GPS, HEK-293T) (PSI 1-6); higher = more stable; conditions: c terminus: a fixed tail appended;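 further: lentivirally expressed fusions sorted by FACS into six bins by GFP to DsRed ratio, PSI derived from sequencing read proportions per bin multiplied by bin number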
Please provide measured protein stability index for the entries that follow.

# input I have this variant here, `R12Y` , and I need its recorded protein stability index.
# output 4.05

# input I have this variant here, `L15M` , and I need its recorded protein stability index.
# output 4.06

# input I have this variant here, `E24Q` , and I need its recorded protein stability index.
# output 2.94

# input I have this variant here, `Q22D` , and I need its recorded protein stability index.
# output 4.67

# input I have this variant here, `A8T` , and I need its recorded protein stability index.
# output 2.33

# input I have this variant here, `E6C` , and I need its recorded protein stability index.
# output 2.3

# input I have this variant here, `R9T` , and I need its recorded protein stability index.
# output 3.53

# input I have this variant here, `W19D` , and I need its recorded protein stability index.
# output 4.56

# input I have this variant here, `Y4F` , and I need its recorded protein stability index.
# output 3.52

# input I have this variant here, `E14S` , and I need its recorded protein stability index.
# output 3.5

# input I have this variant here, `Y18K` , and I need its recorded protein stability index.
# output 4.24

# input I have this variant here, `R1N` , and I need its recorded protein stability index.
# output 2.99

# input I have this variant here, `Q21T` , and I need its recorded protein stability index.
# output 3.76

# input I have this variant here, `I23L` , and I need its recorded protein stability index.
# output 2.21

# input I have this variant here, `K17V` , and I need its recorded protein stability index.
# output 3.64

# input I have this variant here, `Q3N` , and I need its recorded protein stability index.
# output 4.45
